Entries annotated with measured Hela CellCycMod PI Cell Number IC50/EC50
- Tested on: HeLa cells
- assay.name: cells
- Type: cell-based
- condition: assay number 18; cell number

# example entries with known answers
>  <compound>
CCN(CCCCOC(=O)c1ccc(OC)c(OC)c1)C(C)Cc1ccc(OC)cc1.Cl (stereo not drawn)

>  <Hela CellCycMod PI Cell Number IC50/EC50>
> 10 µM

$$$$
>  <compound>
CCCCCCNC(=O)n1cc(F)c(=O)[nH]c1=O

>  <Hela CellCycMod PI Cell Number IC50/EC50>
> 10 µM

$$$$
>  <compound>
C=C(C)[C@H]1Cc2c(ccc3c2O[C@@H]2COc4cc(OC)c(OC)cc4[C@@H]2C3=O)O1

>  <Hela CellCycMod PI Cell Number IC50/EC50>
0.1532 µM

$$$$

## Task Item `CCCCCCCCCCCCCCCC[N+](C)(C)Cc1ccccc1.[Cl-]` has what recorded Hela CellCycMod PI Cell Number IC50/EC50?
## Result > 10 µM

## Task Item `Cc1ccc(Nc2nccc(N(C)c3ccc4c(C)n(C)nc4c3)n2)cc1S(N)(=O)=O` has what recorded Hela CellCycMod PI Cell Number IC50/EC50?
## Result > 10 µM

## Task Item `Cc1cc2c(C(C)C)c(O)c(O)c(C=O)c2c(O)c1-c1c(C)cc2c(C(C)C)c(O)c(O)c(C=O)c2c1O` has what recorded Hela CellCycMod PI Cell Number IC50/EC50?
## Result 3.7083 µM

## Task Item `CCCCCCCCCCCCCCCCNc1ccc(C(=O)O)cc1` has what recorded Hela CellCycMod PI Cell Number IC50/EC50?
## Result > 10 µM

## Task Item O=C1C(=O)c2ccccc2C(O)=C1C1CCC(c2ccc(Cl)cc2)CC1 (stereo not drawn) has what recorded Hela CellCycMod PI Cell Number IC50/EC50?
## Result > 10 µM

## Task Item `CC(=O)Oc1ccc(C2(c3ccc(OC(C)=O)cc3)Oc3ccccc3NC2=O)cc1` has what recorded Hela CellCycMod PI Cell Number IC50/EC50?
## Result 5.7532 µM
